- System: SK-MEL-5 melanoma
- test_protocol: NCI tumour cell line growth inhibition, 48 h
observable: TGI (µM)
Report the figure in µM without appending any unit label.

Below are worked cases with known answers.
compound	recorded_number
NC(=S)N=Nc1c(O)cc(Nc2ccc(Cl)cc2Cl)c2ccccc12	95.8
CC1=C(C)C(=O)O[C@@H]([C@](C)(O)[C@]2(O)CC[C@@]3(O)[C@@H]4C[C@H]5O[C@]56CC=CC(=O)[C@]6(C)[C@H]4CC[C@]23C)C1	1.43
CN(C)CCNC(=O)Nc1c(C#N)[n+]([O-])c2cc(Cl)c(Cl)cc2[n+]1[O-]	38.1

Pending compound:
Which value of TGI has been reported for c1ccc2c(c1)N=C(c1cccc3ccccc13)CC(c1cccc3ccccc13)S2 (stereo not given) in the records?
22.1

====

- Tested on: HOP-92 NSCLC
- test_protocol: NCI tumour cell line growth inhibition, 48 h; in the data active = GI50 below about 0.43 µM; inactive = the rest
Give one outcome, nothing more. List: t = active, f = inactive

Observe how each entry below is paired with its result.
molecule	group_label
COCC(=O)OC1CCn2c1nc1c2C(=O)C(C)=C(NC(C)=O)C1=O (stereo not given)	f
Cc1c(C(=O)NN)nnn1-c1ccnc2c(C(F)(F)F)cccc12	f
CNC(=O)c1cn(C[C@H](F)CCc2ccc(NC(=O)Cc3cc(OC4CC(F)(F)C4)cc(C)n3)nn2)nn1	f
CC(=O)[CH-]C(C)=O.CC(=O)[CH-]C(C)=O.N=CC=N.[Sn+2]	f

State the result this test recorded for COC(=O)NC/C=C\c1nc(CC/C=C\C(=O)OC2CC3CC(=O)O[C@@H](/C=C/CC(C)C)C[C@@H]4CCC(C)C(C[C@@H](OC)CC(C2)O3)O4)co1 (stereo not given in full) .
t

Answer briefly: the call reported for Cc1ncc(NC(=O)c2ccc(CN3CCN(C)CC3)c(C(F)(F)F)c2)cc1Nc1nccc(-c2cccnc2)n1 in this assay.
f

Fill in: this test's call for CC1=Nc2c(ccc3c2C(=O)c2ccccc2C3=O)NC(c2ccncc2)C1 (stereo not given) is ___
f

====

- System: UACC-62 melanoma
- test_protocol: NCI tumour cell line growth inhibition, 48 h
observable: TGI (µM)
Could you give me the number in µM? Just the number is fine.

compound	result_units	recorded_number
CC(=O)[CH-]C(C)=O.CC(=O)[CH-]C(C)=O.N=CC=N.[Sn+2]	µM	5.85

Kindly review the next compound as well.
Lab request: please report TGI under test system UACC-62 melanoma for FC(F)(F)c1ccc2c(Nc3cccc(C4CC(c5ccccc5)=NN4c4ccc(Cl)cc4)c3)ccnc2c1 (stereo not given)
10.6

====

- Test system: U251 CNS
- test_protocol: NCI tumour cell line growth inhibition, 48 h
TGI listing for selected compounds.
Numeric only. Scale: µM

// below: answered compounds
compound	TGI, µM
COC(=O)[C@H]1C=C[C@H](OC2OC(COC(C)=O)C(OC(C)=O)C(OC(C)=O)C2OC(C)=O)n2c(=O)n(-c3ccccc3)c(=O)n21 (some centres not stated)	27.9
CNC(=O)c1cc(Oc2ccc(NC(=O)Nc3ccc(Cl)c(OC(F)(F)F)c3)c(F)c2)ccn1	13.7
O=c1oc2ccccc2c2nc3ccccc3cc12	87.9
Nc1nc(Nc2ccc(OCc3cccc(F)c3)cc2)c2c(n1)[nH]c1ccc(O)cc12	6.09
COCC(=O)OC1CCn2c1nc1c2C(=O)C(C)=C(NC(C)=O)C1=O (configuration not stated)	17.4

Can you look up the measured TGI of Cc1ccsc1C(=S)Nc1ccc(Cl)c(C(=O)OC(C(C)C)C(C)C)c1 for me?
97.1

Field request: TGI | item: COc1cc(/C=C2\CC3C4CC=C5CC(N6CCCC6)CC[C@]5(C)C4CC[C@]3(C)C2OC(C)=O)ccc1OCCN1CCCC1 (some centres not stated)
3.73

Form field: reported TGI of CCNC(=S)N/N=C/c1ccccn1
75

====

- System: EKVX NSCLC
- test_protocol: NCI tumour cell line growth inhibition, 48 h; in the data active = GI50 below about 0.43 µM; inactive = the rest
Outcome (select one): active, inactive

A selection of reference data follows.
compound	group_label
Cc1c(C(=O)NN)nnn1-c1ccnc2c(C(F)(F)F)cccc12	inactive
NC(N)=N/N=C/c1c(-c2ccccn2)nc2sc(Cl)cn12	inactive
CCCSc1cc(Cl)nc(N)n1	inactive
COC(=O)NC/C=C\c1nc(CC/C=C\C(=O)OC2CC3CC(=O)O[C@@H](/C=C/CC(C)C)C[C@@H]4CCC(C)C(C[C@@H](OC)CC(C2)O3)O4)co1 (stereo not given in full)	active

We next turn to a different compound, shown below.
Lab log entry: CC(=O)[CH-]C(C)=O.CC(=O)[CH-]C(C)=O.N=CC=N.[Sn+2] — outcome as called in the assay?
inactive

====

Quick reference: TGI of the listed items.
- Test system: TK-10 renal
- test_protocol: NCI tumour cell line growth inhibition, 48 h
Return type: number; implicit unit µM.

See these solved cases before continuing.
smiles_input	TGI, µM
C=CC(=O)N1CCN(c2ncnc3c(F)c(-c4c(O)cccc4F)c(Cl)cc23)CC1	43.4
FC(F)=C(c1ccc(-c2ccc(Cl)cc2)cc1)C(F)(F)F	29.4

Look at this compound and give its reported TGI. CC1=C(C)C(=O)O[C@@H]([C@](C)(O)[C@]2(O)CC[C@@]3(O)[C@@H]4C[C@H]5O[C@]56CC=CC(=O)[C@]6(C)[C@H]4CC[C@]23C)C1
0.995

Would you mind telling me what TGI value was observed for CCN(CCO)CCNc1ccc(C)c2sc3cc(Cl)ccc3c(=O)c12 ?
3.31

====

- System: BT-549 breast
- test_protocol: NCI tumour cell line growth inhibition, 48 h
observable: GI50

compound	result
CC1=C(C)C(=O)O[C@@H]([C@](C)(O)[C@]2(O)CC[C@@]3(O)[C@@H]4C[C@H]5O[C@]56CC=CC(=O)[C@]6(C)[C@H]4CC[C@]23C)C1	0.335 µM
CC(=O)[CH-]C(C)=O.CC(=O)[CH-]C(C)=O.N=CC=N.[Sn+2]	2.76 µM
C=C(C)[C@@H]1CC[C@@]2(C(=O)O)CC[C@]3(C)C(CCC4[C@@]5(C)CCC(OS(=O)(=O)c6ccccc6)C(C)(C)C5CC[C@]43C)C12 (some centres undefined)	3.17 µM

Item CN(C)c1nc(-c2cccs2)n2nc(-c3ccc(Cl)cc3)cc2n1 has what recorded GI50?
62.8 µM

====

# reported TGI; entries follow
- System: TK-10 renal
- test_protocol: NCI tumour cell line growth inhibition, 48 h

compound	TGI
Clc1cccc(C2ON=C(c3ccccc3)N2C23CC4CC(CC(C4)C2)C3)c1Cl (configuration not stated)	> 10 µM

Need TGI, item CCOC(=O)Cc1nc(/C(C#N)=C/c2ccco2)[nH]c(=O)c1C#N
> 100 µM

Tell me the measured TGI of CCOC(=O)[C@@H](C)C[C@H](Cc1ccccc1)NC(=O)c1csc([C@@H](C[C@H](C(C)C)N(C)C(=O)[C@@H](NC(=O)[C@H]2CCCCN2C)C(C)(C)C)OC(C)=O)n1 , please.
> 16.7 µM

# input compound: CC12CCC(C/C1=N\NC(N)=O)C2(C)C (configuration not stated) ; wanted: its TGI
> 100 µM

Quick check: TGI of COn1cc(CO)c2ccccc21 ?
> 46.2 µM

Recorded TGI of NS(=O)(=O)c1nnc(NSc2ccc([N+](=O)[O-])cc2)s1 , please.
> 100 µM

If you can, please state the reported TGI value of COc1cc2nc(-c3c(F)cccc3F)n(Cc3c(F)cccc3F)c2cc1Cc1c(F)cccc1F .
> 100 µM

====

Items are presented alongside their recorded TGI.
- System: MOLT-4 leukemia
- test_protocol: NCI tumour cell line growth inhibition, 48 h

compound	observable	result
c1ccc(-c2ccc(N=NN3CCCC3)cc2)cc1	TGI	> 100 µM
COc1ccccc1C(=O)c1ccc2ccccc2c1	TGI	34 µM
O=C(Nc1ccc(S(=O)(=O)N[C@@H](C(=O)O)c2ccccc2)cc1)c1ccc(F)cc1	TGI	> 100 µM
CCCNCc1cc(C)cc2c1nc(N1CCNCC1)n2Cc1cc(C)c(F)c(C)c1	TGI	4.39 µM
CCOC(=O)Cc1nc(/C(C#N)=C/c2ccco2)[nH]c(=O)c1C#N	TGI	> 100 µM
CC/C=C\C/C=C\C/C=C\CCCCCCCC(=O)OC(COC(=O)CCCCCCCCCCCCCCCCC)COC1OC(CO)C(O)C(O)C1O (centres undefined)	TGI	> 25 µM
C=C(COC(C)=O)CC(/C=C(\C)CCC=C(C)C)OC(C)=O (centres undefined)	TGI	> 100 µM
COC(=O)[C@H]1C=C[C@H](OC2OC(COC(C)=O)C(OC(C)=O)C(OC(C)=O)C2OC(C)=O)n2c(=O)n(-c3ccccc3)c(=O)n21 (some centres undefined)	TGI	6.16 µM

Moving on to another compound below.
Look up TGI for this compound: Oc1c(Br)cc(CN(Cc2cc(Br)c(O)c(Br)c2)C2CCCCC2)cc1Br
> 100 µM
